So I've got a bunch of compounds here, and I need their BACE1 inhibition values.
# Assay Target: purified human BACE1 (Homo sapiens, UniProt P56817)
# Construct: purchased AnaSpec, Inc., Fremont, CA, USA SensoLyte 520 BACE1 Assay kit (catalogue number not given)
# Sequence (P56817 46-501): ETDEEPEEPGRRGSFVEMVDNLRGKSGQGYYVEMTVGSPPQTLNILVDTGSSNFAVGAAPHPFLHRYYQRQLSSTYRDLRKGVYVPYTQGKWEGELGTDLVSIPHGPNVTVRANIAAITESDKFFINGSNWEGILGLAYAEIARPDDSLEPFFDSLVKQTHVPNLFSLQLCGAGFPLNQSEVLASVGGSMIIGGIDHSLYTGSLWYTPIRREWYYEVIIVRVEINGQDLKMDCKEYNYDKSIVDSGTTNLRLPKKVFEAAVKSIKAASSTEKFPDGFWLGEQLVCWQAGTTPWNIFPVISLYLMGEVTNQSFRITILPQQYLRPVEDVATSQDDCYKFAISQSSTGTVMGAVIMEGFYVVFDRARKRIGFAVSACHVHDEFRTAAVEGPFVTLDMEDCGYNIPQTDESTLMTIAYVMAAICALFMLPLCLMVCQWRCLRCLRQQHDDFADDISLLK
# Assay Name: BACE1 FRET inhibition assay (SensoLyte 520)
# Type: biochemical
# Measurement Setup: 1 and 10 μM; 30 min

IN: Tell me reported BACE1 inhibition for COc1cc(/C=C/C(=O)O)ccc1O [FA, trans-4-hydroxy-3-methoxycinnamic acid, reference compound] , tested with purified human BACE1 (Homo sapiens, UniProt P56817).
OUT: ~97%

IN: Tell me reported BACE1 inhibition for COc1cc(C=CC(=O)Nc2cccc(CC(N)C(=O)O)c2)ccc1O (stereo not shown) , tested with purified human BACE1 (Homo sapiens, UniProt P56817).
OUT: 91–97%

IN: Tell me reported BACE1 inhibition for COc1cc(C=CC(=O)NCc2cccc(CC(N)C(=O)O)c2)ccc1O (stereo not shown) , tested with purified human BACE1 (Homo sapiens, UniProt P56817).
OUT: 78–91%

IN: Tell me reported BACE1 inhibition for COc1cc(C=CC(=O)Oc2cccc(CC(N)C(=O)O)c2)ccc1O (stereo not shown) , tested with purified human BACE1 (Homo sapiens, UniProt P56817).
OUT: 81–91%

====

So I've got a bunch of compounds here, and I need their IC50 values.
# Assay Target: LAT1 (Mus musculus)
# Construct: mouse primary astrocytes, from which we have recently characterized LAT1 expression and function; endogenous in cells
# Assay Name: Ability to bind LAT1: inhibition of [14C]-L-leucine uptake in mouse primary astrocytes
# Measurement Setup: mean ± SD, n = 3-4, read-out: IC50 in astrocytes (LAT1-probe substrate [14C]-L-leucine uptake)
Express it in µM; write the number only.

IN: Form field: reported IC50 of COc1cc(C=CC(=O)Oc2cccc(CC(N)C(=O)O)c2)ccc1O (centres unmarked) [FA-derivative 3]
OUT: 28.7

IN: Form field: reported IC50 of COc1cc(C=CC(=O)Nc2cccc(CC(N)C(=O)O)c2)ccc1O (centres unmarked) [FA-derivative 2]
OUT: 8.9

====

# Assay Target: LAT1 (Mus musculus, UniProt Q9Z127)
# Construct: mouse primary astrocytes, from which we have recently characterized LAT1 expression and function; endogenous in cells; host or cells: mouse primary astrocytes (cortex and hippocampi of 2-day-old wild-type and APP/PS1 mice)
# Sequence (Q9Z127 whole entry): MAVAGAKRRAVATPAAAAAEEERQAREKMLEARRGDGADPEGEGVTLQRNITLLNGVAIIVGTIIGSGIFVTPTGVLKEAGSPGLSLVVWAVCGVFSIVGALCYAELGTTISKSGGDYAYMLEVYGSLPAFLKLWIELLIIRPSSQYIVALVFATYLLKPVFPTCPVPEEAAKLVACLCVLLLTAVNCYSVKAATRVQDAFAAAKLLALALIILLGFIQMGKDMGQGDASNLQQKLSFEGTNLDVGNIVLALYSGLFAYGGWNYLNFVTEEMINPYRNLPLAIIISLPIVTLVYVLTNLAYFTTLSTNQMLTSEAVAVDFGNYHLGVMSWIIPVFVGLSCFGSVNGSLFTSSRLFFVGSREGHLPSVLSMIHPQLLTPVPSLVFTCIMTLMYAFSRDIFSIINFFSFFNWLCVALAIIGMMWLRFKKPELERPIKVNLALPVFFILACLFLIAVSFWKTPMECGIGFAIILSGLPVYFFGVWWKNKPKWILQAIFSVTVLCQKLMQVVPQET
# Sequence (P10852 whole entry partner): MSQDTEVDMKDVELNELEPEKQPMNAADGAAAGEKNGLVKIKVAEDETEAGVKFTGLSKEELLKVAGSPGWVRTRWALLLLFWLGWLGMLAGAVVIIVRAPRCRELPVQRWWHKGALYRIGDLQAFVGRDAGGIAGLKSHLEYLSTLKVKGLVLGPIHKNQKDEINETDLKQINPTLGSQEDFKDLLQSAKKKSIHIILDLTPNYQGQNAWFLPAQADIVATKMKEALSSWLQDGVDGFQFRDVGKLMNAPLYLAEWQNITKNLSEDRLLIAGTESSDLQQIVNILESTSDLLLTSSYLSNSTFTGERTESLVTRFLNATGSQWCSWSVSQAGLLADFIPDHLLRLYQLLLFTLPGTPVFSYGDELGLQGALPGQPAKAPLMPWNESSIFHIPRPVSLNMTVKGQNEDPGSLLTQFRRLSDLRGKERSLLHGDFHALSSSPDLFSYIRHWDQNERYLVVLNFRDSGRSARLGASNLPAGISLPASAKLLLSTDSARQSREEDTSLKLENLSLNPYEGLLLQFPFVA
# Assay Name: Transporter-mediated cellular uptake into primary astrocytes, primary mechanism (Eadie-Hofstee)
# Assay type: in vitro ADME
# Measurement Setup: Eadie-Hofstee analysis, mean ± SD, n = 3
Property Name: Primary transport mechanism (LAT1) K m (µM)
Express it in µM; write the number only.

IN: Tell me reported Primary transport mechanism (LAT1) K m for COc1cc(C=CC(=O)Nc2cccc(CC(N)C(=O)O)c2)ccc1O (stereo not shown) [FA-derivative 2] , tested with LAT1 (Mus musculus, UniProt Q9Z127).
OUT: 4.2

IN: Tell me reported Primary transport mechanism (LAT1) K m for COc1cc(C=CC(=O)NCc2cccc(CC(N)C(=O)O)c2)ccc1O (stereo not shown) [FA-derivative 1] , tested with LAT1 (Mus musculus, UniProt Q9Z127).
OUT: 4.1

====

# Assay Target: LAT1 (Mus musculus)
# Construct: mouse primary astrocytes, from which we have recently characterized LAT1 expression and function; endogenous in cells; host or cells: mouse primary astrocytes (cortex and hippocampi of 2-day-old wild-type and APP/PS1 mice)
# Assay Name: Transporter-mediated cellular uptake into primary astrocytes, primary mechanism (Eadie-Hofstee)
# Assay type: in vitro ADME
# Measurement Setup: Eadie-Hofstee analysis, mean ± SD, n = 3
So I've got a bunch of compounds here, and I need their Primary transport mechanism (LAT1) V max values.
Express it in nmol/min/mg protein; write the number only.

IN: Form field: reported Primary transport mechanism (LAT1) V max of COc1cc(C=CC(=O)NCc2cccc(CC(N)C(=O)O)c2)ccc1O (stereo not shown) [FA-derivative 1]
OUT: 0.008

IN: Form field: reported Primary transport mechanism (LAT1) V max of COc1cc(C=CC(=O)Nc2cccc(CC(N)C(=O)O)c2)ccc1O (stereo not shown) [FA-derivative 2]
OUT: 0.013

====

# Assay Name: Intracellular unbound drug concentration ratio (Kp,uu) in astrocytes
# Type: in vitro ADME
# Measurement Setup: C57BL/6J, mouse, lower concentrations (<0.1 μM), read-out: Kp,uu (unbound intracellular : extracellular ratio)
Property Name: Kp uu

IN: Form field: reported Kp uu of COc1cc(C=CC(=O)NCc2cccc(CC(N)C(=O)O)c2)ccc1O (stereo not shown)
OUT: 0.25 to 2.14

====

So I've got a bunch of compounds here, and I need their Secondary transport mechanism (OATP/OAT) K m values.
# Test system: OATP/OAT
# Assay Name: Transporter-mediated cellular uptake into primary astrocytes, secondary mechanism (Eadie-Hofstee)
# Type: in vitro ADME, mouse
# Measurement Setup: Eadie-Hofstee analysis, mean ± SD, n = 3
Express it in µM; write the number only.

IN: Tell me reported Secondary transport mechanism (OATP/OAT) K m for COc1cc(C=CC(=O)Nc2cccc(CC(N)C(=O)O)c2)ccc1O (stereo not shown) , tested with OATP/OAT.
OUT: 153.8

IN: Tell me reported Secondary transport mechanism (OATP/OAT) K m for COc1cc(C=CC(=O)NCc2cccc(CC(N)C(=O)O)c2)ccc1O (stereo not shown) , tested with OATP/OAT.
OUT: 101.1
